- experimental protocol: reduction of polyQ htt aggregates in cells – imaging, exon1htt(103Q)mCFP cells, high-content imaging, primary screen (AID 483);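 also: compound exposure lasted 3 days before fixation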
- assay context: exon1htt(103Q)mCFP cell line, aggregate imaging, at 2 µM; active compounds read high
Active and inactive are the calls of the source.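 The calls were made as follows: active = visual image review flags a hit and inhibition of aggregation exceeds 20%; inconclusive = visual hit but inhibition at or below 20%; inactive = no hit on visual image review.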
Each entry below lists one item and its recorded inhibition of aggregation value.

{"compound": "Cc1nn(-c2ccccc2)c2sc(C(=O)N3CCOCC3)cc12", "inhibition of aggregation": "-1.9% (inactive)"}
{"compound": "COc1ccc(OC)c(NC(=O)CCNS(=O)(=O)c2cccs2)c1", "inhibition of aggregation": "5.1% (inactive)"}
{"compound": "CCN1C(=O)Cc2cc(S(=O)(=O)N3CCOCC3)ccc21", "inhibition of aggregation": "-11.1% (inactive)"}
{"compound": "COc1ccc(-c2nnc(-c3cccs3)o2)cc1OC", "inhibition of aggregation": "6.2% (inactive)"}
{"compound": "CCOC(=O)N1CCN(C(=O)CSc2nnc(Cc3ccccc3)o2)CC1", "inhibition of aggregation": "10.1% (inactive)"}

[in] Look up inhibition of aggregation for this compound: O=C(NCc1ccc2c(c1)OCO2)C1CCC(CNS(=O)(=O)c2ccccc2)CC1 (stereo unspecified)
[out] -31.1% (inactive)

* * *

Each entry below lists one item and its recorded inhibition value.
- experimental protocol: blockers of RIG-like receptor reporter activation – cell-based, Sendai virus stimulus, luciferase, 10K MLSCN set, TLR/RLR signaling modifier project, primary screen (AID 602276);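 also: firefly luciferase from ISG56 promoter only with Renilla not read in this screen; 0% = Sendai virus plus DMSO and 100% = medium plus DMSO without virus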
- assay context: HEK293 RL24 IRF3 luciferase reporter, at 10 µM, active compounds read high
Give a bare numeral; the unit % is implied.

{"compound": "CCCc1nnc2n1N=C(c1ccc(OC)c(OC)c1)CS2", "readout unit": "%", "inhibition": 16.9}
{"compound": "COc1ccc(C(N)=O)cc1N", "readout unit": "%", "inhibition": -5.97}
{"compound": "O=S(=O)(Nc1cccnc1)c1cc(Cl)ccc1Cl", "readout unit": "%", "inhibition": 23.6}

[in] Look up inhibition for this compound: COc1ccc(S(=O)(=O)NCCC(=O)NC2CCCCCCC2)cc1
[out] 17.8

[in] Thanks! And CCOC(=O)c1cnn(-c2cc(C)nc3c(-c4ccccc4)c(C)nn23)c1N ?
[out] 14.6

[in] Thanks! And COP(C)(=O)c1c(C)nn(-c2ccccc2)c1C (stereo unspecified) ?
[out] 8.87

[in] Thanks! And CCOC(=O)CC(=O)Nc1c(C)cc(C)cc1C ?
[out] -9.54

[in] Thanks! And CCC(CC)n1[nH]c(=O)c2c(C)cc(C)nc21 ?
[out] 6.59

[in] Thanks! And COc1ccc(C/C(N)=N/n2cnnc2)cc1Cl ?
[out] 6.09

[in] Thanks! And COc1cc(C2N3CC4(C)CN2CC(C)(C3)C4)ccc1O (stereo unspecified) ?
[out] 0.715

[in] Thanks! And CC(C)Cn1c(N)c(C(=O)NCc2cccs2)c2nc3ccccc3nc21 ?
[out] 14.5

[in] Thanks! And CCOc1ccc(NC(=O)C2CC(=O)N(C(C)C)C2)cc1 (stereo unspecified) ?
[out] 11

* * *

- experimental protocol: endothelial E-selectin expression blockers – imaging, HUVEC, immunofluorescence, MLSMR starter and 10KST1 sets, primary screen (AID 487);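 also: signal is fraction of cell area covered by stained E-selectin grains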
- assay context: HUVEC TNFalpha-induced E-selectin immunofluorescence imaging, at 2 µM; active compounds read high
measurement label: inhibition (%)
Give a bare numeral; the unit % is implied.

{"compound": "Cc1ccc(-c2nnc(N(C)C(=O)c3ccccn3)s2)cn1", "inhibition (%)": -60.4}
{"compound": "Cn1cnc(S(=O)(=O)Nc2ccc(C(F)(F)F)cc2)c1", "inhibition (%)": 14.3}
{"compound": "O=C(NCc1ccc(F)cc1)c1cc2ccccn2n1", "inhibition (%)": -1}

[in] Look up inhibition for this compound: Fc1cccc(Cl)c1Cn1nnc2c(NCc3ccccn3)ncnc21
[out] -26.6

[in] Thanks! And COc1cccc(CN2CCN(C(=O)CC(C)C)CC2)c1 ?
[out] -45.8

[in] Thanks! And Cc1nc2ncnn2c(Nc2ccc3c(c2)OCCO3)c1C ?
[out] -57.1

[in] Thanks! And CC1CCN(Cc2ccc(NC(=O)C3CCN(c4nnc(-n5cccc5)s4)CC3)cc2)CC1 ?
[out] 44.3

[in] Thanks! And CSc1nnc(-c2ccc(NC(=O)CCc3ccccc3)cc2)n1C ?
[out] -79.2

[in] Thanks! And CCOC(=O)C(C(=O)OCC)C(C)C#CCN1CCCCC1 (stereo unspecified) ?
[out] -79.7

[in] Thanks! And Cc1ccc(CSc2nc3c(c(=O)[nH]2)CCC3)cc1 ?
[out] 4.9

[in] Thanks! And CSC1=C(C#N)C(c2ccc(Cl)cc2)C2=C(CC(C)(C)CC2=O)N1 (stereo unspecified) ?
[out] -5.3

* * *

- target under test: Voltage-gated potassium channel subunit beta-2 (Rattus norvegicus)
- experimental protocol: inhibitors of rat Kvbeta2 reductase activity – biochemical, NADPH fluorescence, primary screen (AID 622);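 also: slope of raw intensity against log time taken from 70 to 1610 s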
- assay context: recombinant KvBeta, 4-cyanobenzaldehyde reduction, at 10 µM, active compounds read high
measurement label: fluorescence slope
Enter the number alone.

Past entries and their recorded results:
{"molecule": "CN(CCNS(=O)(=O)c1ccc2c(c1)oc(=O)n2C)Cc1ccccc1", "target under test": "Voltage-gated potassium channel subunit beta-2 (Rattus norvegicus)", "quantitative readout": -0.604}
{"molecule": "COc1ccc(C(=O)N2CCN(C(=O)c3ccco3)CC2)cc1OC", "target under test": "Voltage-gated potassium channel subunit beta-2 (Rattus norvegicus)", "quantitative readout": -0.401}
{"molecule": "O=C(c1cnn2c(C(F)(F)F)cc(-c3ccco3)nc12)N1CCc2ccccc2C1", "target under test": "Voltage-gated potassium channel subunit beta-2 (Rattus norvegicus)", "quantitative readout": -0.327}
{"molecule": "N#Cc1nc(COc2ccccc2)oc1NCCCn1ccnc1", "target under test": "Voltage-gated potassium channel subunit beta-2 (Rattus norvegicus)", "quantitative readout": -0.629}
{"molecule": "Cc1cccc(NS(=O)(=O)c2cc(C(=O)OCC(=O)Nc3cc(C)on3)ccc2C)c1", "target under test": "Voltage-gated potassium channel subunit beta-2 (Rattus norvegicus)", "quantitative readout": -0.498}
{"molecule": "CC(C)CCNc1cc(=O)n(C)c(=O)n1C", "target under test": "Voltage-gated potassium channel subunit beta-2 (Rattus norvegicus)", "quantitative readout": -0.459}

[in] Look up fluorescence slope for this molecule: O=C(Nc1nc(-c2cccs2)cs1)c1cccc(S(=O)(=O)N2CCCCC2)c1
[out] -0.479

[in] Thanks! And Cc1cc(Oc2ccc(Cl)cc2)nc(-c2ccccc2O)n1 ?
[out] -0.517

[in] Thanks! And c1ccc2oc(SCc3cn4ccccc4n3)nc2c1 ?
[out] -0.506

[in] Thanks! And CC(=O)OC1c2ccccc2C(=O)N1Cc1ccccc1Cl (stereo unspecified) ?
[out] -0.552

[in] Thanks! And COc1cc2c(cc1OC)C(C)N(C(=O)Cn1ncc3c1-c1ccccc1OC3)CC2 (stereo unspecified) ?
[out] -0.587

* * *

- experimental protocol: inhibitors of TNFa-induced NFkB p65 translocation, primary screen, imaging, HUVEC, MLSMR starter and 10KST1 sets (AID 438);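 also: compound added about 3h40 before a 20 min TNFalpha stimulation; signal is the nuclear over cytoplasmic p65 intensity ratio per well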
- assay context: HUVEC TNFa-induced p65 nuclear translocation; at 2 µM, active compounds read high, 0% TNFa-plus-vehicle, 100% no-TNFa wells
Each entry below lists one item and its recorded inhibition value.
Give a bare numeral; the unit % is implied.

Past entries and their recorded results:
{"compound": "CC(=O)N1CCc2cc(Br)cc(S(=O)(=O)NCCCN3CCCC(C)C3)c21 (stereo unspecified)", "measurement label": "inhibition", "quantitative readout": 0.3}
{"compound": "COc1ccc(-c2noc(COc3ccc(C)c(C)c3)n2)cc1OC", "measurement label": "inhibition", "quantitative readout": 2.7}
{"compound": "COc1ccc(Cl)cc1S(=O)(=O)n1cnc2ccccc21", "measurement label": "inhibition", "quantitative readout": -4.8}
{"compound": "Cc1nn(S(=O)(=O)N2CCCCC2)c(C)c1Br", "measurement label": "inhibition", "quantitative readout": 4}
{"compound": "COC(=O)c1ccc(-c2nn(C)c(=O)c3ccccc23)cc1", "measurement label": "inhibition", "quantitative readout": -5.5}

[in] Look up inhibition for this compound: CCN(CC)c1ccc(-c2c(C#N)c(N)nc(OC)c2C#N)cc1
[out] -3.8

[in] Thanks! And Cc1ccc(C(=O)N2CCN(C(=O)c3ccc(C)c(C)c3)C(C)C2)cc1C (stereo unspecified) ?
[out] -0.7

* * *

Each entry below lists one item and its recorded inhibition of aggregation value.
- experimental protocol: reduction of polyQ htt aggregates in cells – imaging, exon1htt(103Q)mCFP cells, high-content imaging, primary screen (AID 483);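 also: compound exposure lasted 3 days before fixation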
- assay context: exon1htt(103Q)mCFP cell line, aggregate imaging, at 2 µM; active compounds read high
Give a bare numeral; the unit % is implied.

Past entries and their recorded results:
{"compound": "CN1CCN(CCCNC(=O)Cn2ncc3c4ccccc4n(C)c3c2=O)CC1", "inhibition of aggregation, %": -7.2}
{"compound": "CC1CCCN(C(=O)C23CCC(C)(C(=O)C2)C3(C)C)C1 (stereo not given)", "inhibition of aggregation, %": -8.3}
{"compound": "Cc1ccc(-c2nc3cnccn3c2Nc2ccc3c(c2)OCO3)o1", "inhibition of aggregation, %": 2.9}

[in] Look up inhibition of aggregation for this compound: CCOC(=O)C1=C(O)C(=O)N(c2ccc(S(N)(=O)=O)cc2)C1c1ccccc1 (stereo not given)
[out] -10.8

[in] Thanks! And COC(=O)C(C)Sc1nnc2n(-c3cccc(C)c3)c(=O)c3c4c(sc3n12)CCCC4 (stereo not given) ?
[out] 7.6

[in] Thanks! And CCOc1ccc(-n2cc(C(=O)N3CCN(C)CC3)c3cc(OC)c(OC)cc3c2=O)cc1 ?
[out] 0.2

[in] Thanks! And N#CCc1c(C#N)c(N)nc(N2CCN(S(=O)(=O)c3ccccc3)CC2)c1C#N ?
[out] -7.2

[in] Thanks! And CCCC(=O)N1CC(=O)Nc2ccc(C)cc2C1c1ccc(F)cc1 (stereo not given) ?
[out] 7.9

[in] Thanks! And CCOC(=O)c1cc2c(=O)n3ccccc3nc2n(CCCOC)c1=NC(C)=O ?
[out] 21.5

[in] Thanks! And O=C(CCSc1nc(-c2ccco2)cc(C(F)(F)F)n1)Nc1ccc2c(c1)OCO2 ?
[out] 30.3

[in] Thanks! And Cc1ccc(C(=O)N2CCN(C(=O)c3ccc(C)c(C)c3)C(C)C2)cc1C (stereo not given) ?
[out] -2.3

[in] Thanks! And CCC(c1nnnn1Cc1ccco1)N(CCc1ccccc1)Cc1cc2cccc(C)c2[nH]c1=O (stereo not given) ?
[out] -2.2

[in] Thanks! And O=C(Nc1ccc(N2CCOCC2)cc1)c1cc2ccccc2o1 ?
[out] 7.2

[in] Thanks! And CCC(CC)n1[nH]c(=O)c2c(C)cc(C)nc21 ?
[out] 0.4

[in] Thanks! And O=c1oc2ccccc2c2nccnc12 ?
[out] 2.2

[in] Thanks! And CCCCn1c(CN2CCN(c3ccccc3)CC2)nc2c1c(=O)n(C)c(=O)n2C ?
[out] -3.7

[in] Thanks! And CCCSc1nnc(-c2ccccc2NC(=O)CC)c(=O)[nH]1 ?
[out] -17.5

[in] Thanks! And Cc1ccccc1N1OC2C(=O)N(c3ccc(F)cc3)C(=O)C2C1c1ccccn1 (stereo not given) ?
[out] -5.9

The values you see were collected from PubChem BioAssay.
